Measured Biodistribution: Stomach, listed per entry for reference.
Assay: Biodistribution of 153Sm complexes in rats (% injected dose per organ, NaI scintillation counting after tail vein injection)
Format: in vivo, Sprague Dawley rats
Conditions: i.v. tail vein, 2 hours post injection
Reply numerically in % INJECTED DOSE, unit not repeated.

Below: 3 molecules and their reported Biodistribution: Stomach.
{"MOLECULE": "O=P([O-])([O-])CN1Cc2cccc(n2)CN(CP(=O)([O-])[O-])Cc2cccc(n2)C1.[153Sm+3] [^153 Sm-BP2P]", "MEAS_VALUE": 0.20}
{"MOLECULE": "CCOP(=O)([O-])CN1Cc2cccc(n2)CN(CP(=O)([O-])OCC)Cc2cccc(n2)C1.[153Sm+3] [^153 Sm-BP2EP]", "MEAS_VALUE": 0.36}
{"MOLECULE": "O=C([O-])CN1Cc2cccc(n2)CN(CC(=O)[O-])Cc2cccc(n2)CN(CC(=O)[O-])Cc2cccc(n2)C1.[153Sm+3] [^153 Sm-TP3A]", "MEAS_VALUE": 0.036}

Now, please, on to the next molecule.
Ask: Supply recorded Biodistribution: Stomach for O=C([O-])CN1Cc2cccc(n2)CN(CC(=O)[O-])Cc2cccc(n2)C1.[153Sm+3] [^153 Sm-BP2A] here.
Reply: 0.05

---

Test: Biodistribution of 153Sm complexes in rats (% injected dose per organ, NaI scintillation counting after tail vein injection)
Format: in vivo, Sprague Dawley rats
Details: i.v. tail vein, 2 hours post injection
EXPERIMENTAL_ENDPOINT: Biodistribution: Lung

Below: 3 compounds and their reported Biodistribution: Lung.
{"COMPOUND": "O=P([O-])([O-])CN1Cc2cccc(n2)CN(CP(=O)([O-])[O-])Cc2cccc(n2)C1.[153Sm+3] [^153 Sm-BP2P]", "MEAS_VALUE": "0.17 % INJECTED DOSE"}
{"COMPOUND": "O=C([O-])CN1Cc2cccc(n2)CN(CC(=O)[O-])Cc2cccc(n2)C1.[153Sm+3] [^153 Sm-BP2A]", "MEAS_VALUE": "0.06 % INJECTED DOSE"}
{"COMPOUND": "O=C([O-])CN1Cc2cccc(n2)CN(CC(=O)[O-])Cc2cccc(n2)CN(CC(=O)[O-])Cc2cccc(n2)C1.[153Sm+3] [^153 Sm-TP3A]", "MEAS_VALUE": "0.047 % INJECTED DOSE"}

Now, please, on to the next compound.
Ask: Supply recorded Biodistribution: Lung for CCOP(=O)([O-])CN1Cc2cccc(n2)CN(CP(=O)([O-])OCC)Cc2cccc(n2)C1.[153Sm+3] [^153 Sm-BP2EP] here.
Reply: 0.19 % INJECTED DOSE

---

Assay: Biodistribution of 153Sm complexes in rats (% injected dose per organ, NaI scintillation counting after tail vein injection)
Assay type: in vivo, Sprague Dawley rats
Conditions: i.v. tail vein, 2 hours post injection
EXPERIMENTAL_ENDPOINT: Biodistribution: Large Intestine (% INJECTED DOSE)
Reply numerically in % INJECTED DOSE, unit not repeated.

Below: 3 compounds and their reported Biodistribution: Large Intestine.
{"MOLECULAR_STRING": "O=P([O-])([O-])CN1Cc2cccc(n2)CN(CP(=O)([O-])[O-])Cc2cccc(n2)C1.[153Sm+3]", "MEAS_VALUE": 0.13}
{"MOLECULAR_STRING": "CCOP(=O)([O-])CN1Cc2cccc(n2)CN(CP(=O)([O-])OCC)Cc2cccc(n2)C1.[153Sm+3]", "MEAS_VALUE": 0.25}
{"MOLECULAR_STRING": "O=C([O-])CN1Cc2cccc(n2)CN(CC(=O)[O-])Cc2cccc(n2)C1.[153Sm+3]", "MEAS_VALUE": 0.04}

Now, please, on to the next compound.
Ask: Supply recorded Biodistribution: Large Intestine for O=C([O-])CN1Cc2cccc(n2)CN(CC(=O)[O-])Cc2cccc(n2)CN(CC(=O)[O-])Cc2cccc(n2)C1.[153Sm+3] here.
Reply: 0.156
